Assay: Solubility in water, saturated suspension filtered and measured by HPLC
Assay type: physicochemical
Conditions: thermodynamic from solid; water; shaken and sonicated about 5-10 min at about 50° C.; filtered 0.2 μm; HPLC; read-out: Solubility in water
// reported solubility for each item listed
Quick reminder: number only, in mg/mL, skip the unit.

>  <structure-string>
CN(/N=C(\[O-])CC(=O)NN(C)C(=S)c1ccccc1)C(=S)c1ccccc1.[K+]

>  <measured-attribute>
solubility

>  <units-symbol>
mg/mL

>  <experimental-value>
41.2

$$$$

Could you tell me which solubility is on file for CN(/N=C(\[O-])CC(=O)NN(C)C(=S)c1ccccc1)C(=S)c1ccccc1.[Na+] ?
52.8
